Test system: RPMI-7951 cancer cell line
Assay: DFO assay
Format: cell-based, human
Conditions: read-out: IC50 ± SD RPMI-7951 without DFO; without DFO, treatment time 24 hours
Attribute measured: pIC50
By convention, pIC50 is the negative base-10 log of a molar concentration.

Qu. Form field: reported pIC50 of C=C(C)C1CC=C(COC(=O)CCC(=O)OC2OC3OC4(C)CCC5C(C)CCC(C2C)C35OO4)CC1 (centres unmarked) [Compound 11iii]
Ans. 5.63

As a next step, examine the compound that follows.
Qu. Form field: reported pIC50 of C[C@H]1[C@H](OC(=O)CCC(=O)Oc2ccc(CCO)cc2)O[C@@H]2O[C@@]3(C)CC[C@H]4[C@H](C)CC[C@@H]1[C@@]24OO3 [Compound 11iv]
Ans. 5.08
